System: H3255
Experiment: relative viability (nuclei count vs DMSO), 5 days (fraction); higher = more cells survive
Details: first compound 15.81 µM
Catalogue of relative viability values
Respond with the number and no other words.

Use these answered entries as a reference point.
compound | testedOn | relative viability
O=C(O)CCCCC(CCSCc1ccccc1)SCc1ccccc1 (centres undefined) [CPI-613] + CC(C)C[C@H](NC(=O)[C@H](Cc1ccccc1)NC(=O)c1cnccn1)B(O)O [Bortezomib] (partner 0.002 µM) | H3255 | 0.719
O=C(O)CCCCC(CCSCc1ccccc1)SCc1ccccc1 (centres undefined) [CPI-613] + C[C@]1(O)C[C@@H](c2nc(-c3ccc4ccc(-c5ccccc5)nc4c3)c3c(N)nccn32)C1 [Linsitinib] (partner 1 µM) | H3255 | 0.989
O=C(O)CCCCC(CCSCc1ccccc1)SCc1ccccc1 (centres undefined) [CPI-613] + C[C@@H](Oc1cc(-c2cnn(C3CCNCC3)c2)cnc1N)c1c(Cl)ccc(F)c1Cl [Crizotinib] (partner 1 µM) | H3255 | 0.894

We next turn to a different compound, shown below.
query: Item under review: O=C(O)CCCCC(CCSCc1ccccc1)SCc1ccccc1 (centres undefined) [CPI-613] + COc1cccc2cc(-c3nc([C@H]4CC[C@H](C(=O)O)CC4)n4ncnc(N)c34)[nH]c12 [OSI-027] (partner 0.5 µM) . Reported relative viability?
result: 0.501

* * *

relative viability values for the compounds below.
Test system: ChaGo-K-1
Assay: relative viability (nuclei count vs DMSO), 5 days (fraction); higher = more cells survive
Settings: first compound 0.253 µM
Respond using a number only.

query: Please report the recorded relative viability for Cc1cnc(-c2cnc(NCCNc3ccc(C#N)cn3)nc2-c2ccc(Cl)cc2Cl)[nH]1 + O=C(c1cc(Cc2n[nH]c(=O)c3ccccc23)ccc1F)N1CCN(C(=O)C2CC2)CC1 [Olaparib] (partner 8 µM) .
result: 0.361

query: So what does the record say about relative viability for O=c1[nH]c2ccccc2n1C1CCN(CCCC(c2ccc(F)cc2)c2ccc(F)cc2)CC1 [Pimozide] + COc1cccc2cc(-c3nc([C@H]4CC[C@H](C(=O)O)CC4)n4ncnc(N)c34)[nH]c12 [OSI-027] (partner 0.5 µM) ?
result: 0.555

query: # query: relative viability of entry O=c1[nH]c2ccccc2n1C1CCN(CCCC(c2ccc(F)cc2)c2ccc(F)cc2)CC1 [Pimozide] + NC(=O)Nc1cc(-c2cccc(F)c2)sc1C(=O)N[C@H]1CCCNC1 [AZD7762] (partner 0.2 µM)
result: 0.871

* * *

System: NCI-H727
Test: relative viability (nuclei count vs DMSO), 5 days (fraction); higher = more cells survive
Conditions: first compound 500 µM
quantity: relative viability
Just the number, please, no unit attached.

compound | relative viability
O=C(O)CCCCC(CCSCc1ccccc1)SCc1ccccc1 (stereo not given) [CPI-613] + CC(=O)c1c(C)c2cnc(Nc3ccc(N4CCNCC4)cn3)nc2n(C2CCCC2)c1=O [Palbociclib] (partner 0.5 µM) | 0.634
O=C(O)CCCCC(CCSCc1ccccc1)SCc1ccccc1 (stereo not given) [CPI-613] + CS(=O)(=O)CCNCc1ccc(-c2ccc3ncnc(Nc4ccc(OCc5cccc(F)c5)c(Cl)c4)c3c2)o1 [Lapatinib] (partner 2 µM) | 0.0973
O=C(O)CCCCC(CCSCc1ccccc1)SCc1ccccc1 (stereo not given) [CPI-613] + CCNC(=O)c1noc(-c2cc(C(C)C)c(O)cc2O)c1-c1ccc(CN2CCOCC2)cc1 [Luminespib] (partner 0.01 µM) | 0.115
O=C(O)CCCCC(CCSCc1ccccc1)SCc1ccccc1 (stereo not given) [CPI-613] + COc1cc2c(Oc3ccc(NC(=O)C4(C(=O)Nc5ccc(F)cc5)CC4)cc3F)ccnc2cc1OCCCN1CCOCC1 [Foretinib] (partner 0.25 µM) | 0.47

Proceed to the following item.
query: If you can, please state the reported relative viability value of O=C(O)CCCCC(CCSCc1ccccc1)SCc1ccccc1 (stereo not given) [CPI-613] + C[C@]1(O)C[C@@H](c2nc(-c3ccc4ccc(-c5ccccc5)nc4c3)c3c(N)nccn32)C1 [Linsitinib] (partner 1 µM) .
result: 0.0496

* * *

Test system: ABC-1
Assay: relative viability (nuclei count vs DMSO), 5 days (fraction); higher = more cells survive
Conditions: first compound 5 µM
quantity: relative viability
Answer field: number only, no words.

compound | relative viability
O=C(O)CCCCC(CCSCc1ccccc1)SCc1ccccc1 (stereo unspecified) [CPI-613] + COc1cccc2cc(-c3nc([C@H]4CC[C@H](C(=O)O)CC4)n4ncnc(N)c34)[nH]c12 [OSI-027] (partner 0.5 µM) | 0.404
O=C(O)CCCCC(CCSCc1ccccc1)SCc1ccccc1 (stereo unspecified) [CPI-613] + N=C(N)NC(=N)NCCc1ccccc1 [Phenformin] (partner 250 µM) | 0.22
O=C(O)CCCCC(CCSCc1ccccc1)SCc1ccccc1 (stereo unspecified) [CPI-613] + CCNC(=O)c1noc(-c2cc(C(C)C)c(O)cc2O)c1-c1ccc(CN2CCOCC2)cc1 [Luminespib] (partner 0.01 µM) | 0.629

query: Value lookup for relative viability; key = O=C(O)CCCCC(CCSCc1ccccc1)SCc1ccccc1 (stereo unspecified) [CPI-613] + Nc1ncn([C@H]2C[C@H](O)[C@@H](CO)O2)c(=O)n1 [Decitabine] (partner 2 µM)
result: 1.18

query: Recorded relative viability for O=C(O)CCCCC(CCSCc1ccccc1)SCc1ccccc1 (stereo unspecified) [CPI-613] + CC(C)C[C@H](NC(=O)[C@H](Cc1ccccc1)NC(=O)c1cnccn1)B(O)O [Bortezomib] (partner 0.002 µM) , please?
result: 0.305

query: // query relative viability value for entry O=C(O)CCCCC(CCSCc1ccccc1)SCc1ccccc1 (stereo unspecified) [CPI-613] + C[C@]1(O)C[C@@H](c2nc(-c3ccc4ccc(-c5ccccc5)nc4c3)c3c(N)nccn32)C1 [Linsitinib] (partner 1 µM)
result: 0.744

* * *

Tested on: NCI-H1734
Test: relative viability (nuclei count vs DMSO), 5 days (fraction); higher = more cells survive
Conditions: first compound 500 µM
quantity: relative viability

Below are worked cases with known answers.
compound | relative viability
O=C(O)CCCCC(CCSCc1ccccc1)SCc1ccccc1 (stereo not drawn) [CPI-613] + C[C@]1(O)C[C@@H](c2nc(-c3ccc4ccc(-c5ccccc5)nc4c3)c3c(N)nccn32)C1 [Linsitinib] (partner 1 µM) | 0.117
O=C(O)CCCCC(CCSCc1ccccc1)SCc1ccccc1 (stereo not drawn) [CPI-613] + COc1cccc2cc(-c3nc([C@H]4CC[C@H](C(=O)O)CC4)n4ncnc(N)c34)[nH]c12 [OSI-027] (partner 0.5 µM) | 0.1

Would you kindly look at the next entry?
query: Fill in the blank: the reported relative viability of O=C(O)CCCCC(CCSCc1ccccc1)SCc1ccccc1 (stereo not drawn) [CPI-613] + Nc1nc2[nH]cc(CCc3ccc(C(=O)N[C@@H](CCC(=O)O)C(=O)O)cc3)c2c(=O)[nH]1 [Pemetrexed] (partner 0.2 µM) is ____.
result: 0.131

* * *

Test system: NCI-H522
Assay: relative viability (nuclei count vs DMSO), 5 days (fraction); higher = more cells survive
Conditions: first compound 0.5 µM
# satisfied = relative viability below 0.5 (exclusive); not satisfied = relative viability at/above 0.5

The following compounds have reported results that may help.
compound | class
Nc1ccn([C@@H]2O[C@H](CO)[C@@H](O)[C@@H]2O)c(=O)n1 [Cytarabine] + Nc1nc2[nH]cc(CCc3ccc(C(=O)N[C@@H](CCC(=O)O)C(=O)O)cc3)c2c(=O)[nH]1 [Pemetrexed] (partner 0.2 µM) | satisfied
Nc1ccn([C@@H]2O[C@H](CO)[C@@H](O)[C@@H]2O)c(=O)n1 [Cytarabine] + Cc1cc(Nc2cc(N3CCN(C)CC3)nc(Sc3ccc(NC(=O)C4CC4)cc3)n2)n[nH]1 [Tozasertib] (partner 0.1 µM) | not satisfied
COc1cc2nccc(Oc3ccc(NC(=O)Nc4cc(C)on4)c(Cl)c3)c2cc1OC [Tivozanib] + CC(=O)c1c(C)c2cnc(Nc3ccc(N4CCNCC4)cn3)nc2n(C2CCCC2)c1=O [Palbociclib] (partner 0.5 µM) | not satisfied
COc1cc2nccc(Oc3ccc(NC(=O)Nc4cc(C)on4)c(Cl)c3)c2cc1OC [Tivozanib] + Cc1nc(Nc2ncc(C(=O)Nc3c(C)cccc3Cl)s2)cc(N2CCN(CCO)CC2)n1 [Dasatinib] (partner 0.075 µM) | not satisfied
Nc1ccn([C@@H]2O[C@H](CO)[C@@H](O)[C@@H]2O)c(=O)n1 [Cytarabine] + N=C(N)NC(=N)NCCc1ccccc1 [Phenformin] (partner 250 µM) | satisfied

For the next question, use this compound.
query: I wonder whether Nc1ccn([C@@H]2O[C@H](CO)[C@@H](O)[C@@H]2O)c(=O)n1 [Cytarabine] + NC(=O)Nc1cc(-c2cccc(F)c2)sc1C(=O)N[C@H]1CCCNC1 [AZD7762] (partner 0.2 µM) has relative viability below 0.5. Can you tell?
result: satisfied
